target: TPH1 (104–394) (Homo sapiens, UniProt P17752); construct: His6 (N, cleaved yes); test: Biacore surface plasma resonance binding / competition experiments; settings: SPR, previously estimated, data not shown; read-out: KD toward TPH1
observation.type: Kd (µM)

P = N[C@@H](Cc1c[nH]c2ccccc12)C(=O)O
Q = C[C@H](O)[C@H](O)C1=Nc2c(nc(N)[nH]c2=O)NC1
query: Could you kindly indicate whether P or Q has the higher Kd value? Lab log: write the label of the selected item as the result.
result: P
(P: 56 µM, Q: 11 µM)
